target_or_test_system: UniProt O15438
Sequence (O15438 whole entry): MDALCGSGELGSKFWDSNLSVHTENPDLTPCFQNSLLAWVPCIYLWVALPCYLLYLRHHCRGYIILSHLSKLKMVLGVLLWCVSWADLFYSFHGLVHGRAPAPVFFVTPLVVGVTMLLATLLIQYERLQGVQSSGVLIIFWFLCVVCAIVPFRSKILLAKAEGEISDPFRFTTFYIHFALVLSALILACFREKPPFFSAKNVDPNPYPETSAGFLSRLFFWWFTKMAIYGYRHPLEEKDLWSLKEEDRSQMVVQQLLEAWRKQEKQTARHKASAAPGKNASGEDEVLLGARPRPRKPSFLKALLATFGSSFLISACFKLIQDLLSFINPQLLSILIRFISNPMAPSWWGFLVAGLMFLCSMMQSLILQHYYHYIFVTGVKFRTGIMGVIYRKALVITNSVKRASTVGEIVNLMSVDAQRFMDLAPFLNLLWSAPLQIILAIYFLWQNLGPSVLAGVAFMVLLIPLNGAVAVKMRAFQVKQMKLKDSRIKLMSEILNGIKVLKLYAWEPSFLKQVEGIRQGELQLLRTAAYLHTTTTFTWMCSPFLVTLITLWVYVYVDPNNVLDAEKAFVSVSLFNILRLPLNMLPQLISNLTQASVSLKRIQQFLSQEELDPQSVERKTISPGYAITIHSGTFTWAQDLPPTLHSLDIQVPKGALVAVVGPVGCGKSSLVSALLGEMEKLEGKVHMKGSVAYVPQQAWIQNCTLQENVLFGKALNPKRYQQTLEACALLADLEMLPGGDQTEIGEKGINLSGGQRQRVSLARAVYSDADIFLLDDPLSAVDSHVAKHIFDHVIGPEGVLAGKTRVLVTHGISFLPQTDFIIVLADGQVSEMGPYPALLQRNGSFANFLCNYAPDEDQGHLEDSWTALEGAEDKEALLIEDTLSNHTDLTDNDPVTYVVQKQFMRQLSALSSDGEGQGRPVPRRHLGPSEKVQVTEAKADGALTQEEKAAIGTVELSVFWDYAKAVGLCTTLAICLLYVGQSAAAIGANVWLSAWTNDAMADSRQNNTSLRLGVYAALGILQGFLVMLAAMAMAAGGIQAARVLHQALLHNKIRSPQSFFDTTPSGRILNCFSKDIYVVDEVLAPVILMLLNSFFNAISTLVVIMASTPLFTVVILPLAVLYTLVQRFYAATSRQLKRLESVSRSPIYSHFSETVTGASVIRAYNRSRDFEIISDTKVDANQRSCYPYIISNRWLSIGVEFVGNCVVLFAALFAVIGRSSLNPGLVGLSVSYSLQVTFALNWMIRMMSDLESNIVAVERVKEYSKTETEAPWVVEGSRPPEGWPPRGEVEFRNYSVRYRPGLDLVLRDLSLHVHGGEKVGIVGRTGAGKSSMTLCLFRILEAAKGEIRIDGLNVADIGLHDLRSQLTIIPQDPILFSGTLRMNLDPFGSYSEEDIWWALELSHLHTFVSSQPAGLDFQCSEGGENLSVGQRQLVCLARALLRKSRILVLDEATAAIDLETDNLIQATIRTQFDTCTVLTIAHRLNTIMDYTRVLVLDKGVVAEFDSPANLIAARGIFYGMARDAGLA
assay: Inhibition of human MRP3 overexpressed in Sf9 insect cell membrane vesicles assessed as uptake of [3H]-estradiol-17beta-D-glucuronide in presence of ATP and GSH measured after 10 mins by membrane vesicle transport assay
Structures can show the parent of a compound that is named as a salt.
experimental_endpoint: IC50

[[record]]
molecule = "CNC(=C[N+](=O)[O-])NCCSCc1ccc(CN(C)C)o1 [RANITIDINE]"
recorded_value = "> 133 µM"

[[record]]
molecule = "Nc1cccc2c1CN(C1CCC(=O)NC1=O)C2=O (centres undefined) [LENALIDOMIDE]"
recorded_value = "> 133 µM"

[[record]]
molecule = "CNNCc1ccc(C(=O)NC(C)C)cc1 [PROCARBAZINE HYDROCHLORIDE]"
recorded_value = "> 133 µM"

[[record]]
molecule = "CCCCc1ncc(/C=C(\\Cc2cccs2)C(=O)O)n1Cc1ccc(C(=O)O)cc1 [EPROSARTAN]"
recorded_value = "6.65 µM"

[[record]]
molecule = "CC(C)(C)c1ccc(C(O)CCCN2CCC(C(O)(c3ccccc3)c3ccccc3)CC2)cc1 (centres undefined) [TERFENADINE]"
recorded_value = "> 133 µM"

[[record]]
molecule = "CC[C@H]1OC(=O)[C@H](C)[C@@H](O[C@H]2C[C@@](C)(OC)[C@@H](O)[C@H](C)O2)[C@H](C)[C@@H](O[C@@H]2O[C@H](C)C[C@H](N(C)C)[C@H]2O)[C@](C)(O)C[C@@H](C)/C(=N\\OCOCCOC)[C@H](C)[C@@H](O)[C@]1(C)O [ROXITHROMYCIN]"
recorded_value = "> 133 µM"

[[record]]
molecule = "Nc1c2c(nc3ccccc13)CCCC2 [TACRINE]"
recorded_value = "> 133 µM"

[[record]]
molecule = "Nc1nc(=O)[nH]cc1F [FLUCYTOSINE]"
recorded_value = "> 133 µM"

[[record]]
molecule = "O=C1Cc2cc(CCN3CCN(c4nsc5ccccc45)CC3)c(Cl)cc2N1 [ZIPRASIDONE MESYLATE]"
recorded_value = "> 133 µM"


Reference source: ChEMBL document CHEMBL4028801
